These data points were gathered from patent US20180009871A1.

Overview of recorded GluR pEC 50 for various binders
Molecular target: human glucagon receptor (GCGR) (human, UniProt P47871 26-477)
Assay: cell-based or functional assay
Where no end group is shown, it is not given here. [ ]: non-standard residue; d: D form. Formula III = not defined here; Aib = CC(C)(N)C(=O)O

- binder: "YSHGTFTSDYSKYLDSARAQEFVKWLEDEPSSK(Formula III)APPPS-NH2 (reading uncertain) [Compound B45]"
  GluR pEC 50: "9.8 pEC50"
- binder: "YSHGTFTSDK(Formula III)SKYLD[Aib]KSAQEFV[Aib]WLEDEPSSGAPPPS-OH (reading uncertain) [Compound B16]"
  GluR pEC 50: "8.5 pEC50"
- binder: "YSHGTFTSDYSKYLD[Aib]KSAQEFV[Aib]WLEDEPSSK(Formula III)APPPS-OH (reading uncertain) [Compound B13]"
  GluR pEC 50: "9.2 pEC50"
- binder: "YSHGTFTSDYSKYLD[Aib]KSAQEFVKWLEDEPSSGAPPPS-OH (not fully specified (residue 24); printed as YSHGTFTSDYSKYLD(Aib)KSAQEFVK****WLEDEPSSGAPPPS-OH; also: structure of Formula II substituent not given here) [Compound B10]"
  GluR pEC 50: "9.9 pEC50"
